System: TO-N3-2 (biotin conjugate)
Assay: pull-down binding Z-score (relative to library population); higher = stronger binding
Conditions: RNA library: Library-2
Kindly return 1 (yes) if reported pull-down binding Z-score is no lower than 0.9; return 0 (no) if it is lower.

# biopolymerSequence, classLabel
measured = [
    ("GUGUUCACACAUAAUGUGUACACCAUGUGUGUACAC [hsa-mir-5692b]", "0 (no)"),
    ("AAAAUGUUUGUCAUAAACCGUUUU [hsa-mir-335]", "0 (no)"),
    ("UAGAGUAGGAGAGCCCACUGA [hsa-mir-6846]", "1 (yes)"),
    ("UCAUUAAUUGA", "0 (no)"),
    ("UGGGGUUGGGGUUGGGGUUGGGGUUGGGGUUGGGGUUGGGGUUGGGGU [G4_r(UGGGGU)8]", "1 (yes)"),
    ("AGCUGGCUGAAGGGCAGAAGGGAACUGUCCUUCAGCCAGAG [hsa-mir-4487]", "0 (no)"),
    ("UGGCCCCGAUUUCAGCUAUGGUUA [SHAPE_invitro_SARS-CoV-2_Motif_146]", "0 (no)"),
    ("GUGAGCUGGAAAUGGGGUGCUAC [hsa-mir-598]", "1 (yes)"),
    ("UAUUCUCUAU [hsa-mir-2054]", "0 (no)"),
    ("CUCUGGUCAGUUGGGAGUCUGAG [hsa-mir-143]", "1 (yes)"),
]

----------
Test system: TO-3-N3 (biotin conjugate)
Experiment: pull-down binding Z-score (relative to library population); higher = stronger binding
Settings: RNA library: Library-2
quantityName: pull-down binding Z-score

# biopolymerSequence, quantityName, measured
measured = [
    ("AUACCUGCACGUGCUCGUGUAGAGUGU", "pull-down binding Z-score", 0.0809),
    ("UUGAGAACCAG [hsa-mir-4328]", "pull-down binding Z-score", 1.74),
    ("AAGCUGUGUGUGUCCAGC [hsa-mir-4732]", "pull-down binding Z-score", 0.132),
    ("GGAGAGUGUUCAGACAUUCUUU [SHAPE_invitro_SARS-CoV-2_Motif_44]", "pull-down binding Z-score", -0.535),
    ("CUUCGCGCUAGUUUGUUUGUGUUAAG [hsa-mir-6077]", "pull-down binding Z-score", -0.0696),
]

----------
Items are presented alongside their recorded pull-down binding Z-score.
System: TO-N3 (biotin conjugate)
Assay: pull-down binding Z-score (relative to library population); higher = stronger binding
Conditions: RNA library: Library-2

# biopolymerSequence, pull-down binding Z-score
measured = [
    ("GUCACUGUCUCAAAUCAGUGAC [hsa-mir-549a]", -0.129),
    ("GCCAGAUGCUGAGCGAUGGC [hsa-mir-4730]", -0.217),
    ("GGCGAUUUUGUUAAAGCCACUUGCGAAUUUUGUGGCACUGAGAAUUUGACUAAAGAAGGUGCCACUACUUGUGGUUACUUACCCCAAAAUGCU", 0.66),
    ("GGCUGCGUGCCACCCGGGCAGCU [hsa-mir-3194]", -0.112),
    ("AUUCUGGAGUCCAUCUAGAG [hsa-mir-1182]", -0.598),
]

----------
Tested on: TO-N3 (biotin conjugate)
Assay: pull-down binding Z-score (relative to library population); higher = stronger binding
Conditions: RNA library: Library-2

# biopolymerSequence, system, pull-down binding Z-score
measured = [
    ("AGGCUGUCUUCAUUCCCUCUUGACCACCC [hsa-mir-6795]", "TO-N3 (biotin conjugate)", 1.29),
    ("CCUUAUAAUUCACAGAAUGCUGUAGCCUCAAAGAUUUUGGGACUACCAACUCAAACUGUUGAUUCAUCACAGG [DMSMaPseq_invitro_SARS-CoV-2_Motif_319]", "TO-N3 (biotin conjugate)", -0.341),
    ("GCUGGGGGUAAAUGACUUGCACAUGAACACAAC [hsa-mir-708]", "TO-N3 (biotin conjugate)", 0.304),
    ("CAGUACAAUUCUGUGAUGCCAUGCGAAAUGCUGGUAUUGUUGGUGUACUG", "TO-N3 (biotin conjugate)", -0.499),
    ("GAGACAACUUCCCAGUCUC [hsa-mir-6717]", "TO-N3 (biotin conjugate)", -1.17),
    ("AUAGUUGUGGGGUAGUGAUUUUACCCUGUUCAGGAGAUAACUAU [hsa-let-7f-1]", "TO-N3 (biotin conjugate)", 0.842),
    ("UUUGAAGUGUUCUAAAUGGUUCAAA [hsa-mir-424]", "TO-N3 (biotin conjugate)", -0.738),
    ("GCGCUUUAGGUCUACACGGGCCGAAGCUAACGCGUUAAGCGC [3-way model-5_mrRNA]", "TO-N3 (biotin conjugate)", 0.0607),
    ("GAGUGGUCGGGUCGACUGAACC [hsa-mir-4726]", "TO-N3 (biotin conjugate)", 1.23),
    ("GAUGGUGGCUGUAUUAAUGCUAACCAAGUCAUCGUC", "TO-N3 (biotin conjugate)", 0.31),
    ("UGAUUUUUGUGGAAAGGGCUAUCAUCUUAUGUCCUUCCCUCAGUCA [SHAPE_invivo_SARS-CoV-2_Motif_462]", "TO-N3 (biotin conjugate)", -0.702),
    ("GCAAAUUAAUGC", "TO-N3 (biotin conjugate)", -1.04),
    ("AUAAACCACCCAUUAGUUUUCCAUUGUGUGCUAAUGGACAAGUUUUUGGUUUAU", "TO-N3 (biotin conjugate)", -1.34),
    ("GCGCUGCCAGAAACUGGCCGCGC [mismatch-UC]", "TO-N3 (biotin conjugate)", -0.905),
    ("CAUAUGUGUAACAGACAUACAUACAUACAUAUG [hsa-mir-3688-2]", "TO-N3 (biotin conjugate)", -1.02),
    ("GAUUAUUGUAAGCAGGAUCCAUUCAAUAAUC [hsa-mir-5188]", "TO-N3 (biotin conjugate)", -0.366),
    ("UACCAGACUAUAACACAUAUAAAAAUACGUGUGAUGGUA [DMSMaPseq_invitro_SARS-CoV-2_Motif_221]", "TO-N3 (biotin conjugate)", -1.03),
    ("UACAUAGUUCAUGCUGAGGCCGGGAUUUCAUGCAGAAAACUGGUUGCAAAAGGUGCUGAAG [hsa-mir-6085]", "TO-N3 (biotin conjugate)", 0.573),
    ("UGCAAGAGAUGGUUGUGUUCCCUUGAACAUAAUACCUCUUACA [DMSMaPseq_invitro_SARS-CoV-2_Motif_219]", "TO-N3 (biotin conjugate)", -1.01),
    ("GUCCGGGUGGGUUCCGGCA [hsa-mir-657]", "TO-N3 (biotin conjugate)", 1.33),
    ("GGCGGAGGCAGGCGUGACCGUUUGCC [hsa-mir-4632]", "TO-N3 (biotin conjugate)", 1.11),
    ("UUGGCCUUUAUUUUCAAUGGCAAG [hsa-mir-548b]", "TO-N3 (biotin conjugate)", 0.349),
    ("CGCUGAUGUGCAUUCAACUCAUUCUCAGCA [hsa-mir-1468]", "TO-N3 (biotin conjugate)", 0.0154),
    ("UGCUGUUGGAGACUCGAUUGUUGGUGACAGCGAAAGAACGAUAACAAA [hsa-mir-3655]", "TO-N3 (biotin conjugate)", 0.231),
    ("UAGGUUGUUAUUUAAUCCAACU [hsa-mir-190a]", "TO-N3 (biotin conjugate)", -0.267),
    ("CUGUUCAGGACAAUGCCGUUGUACA [hsa-mir-199a-2]", "TO-N3 (biotin conjugate)", 0.16),
    ("GGGUUGGGUUGGGUUGGGUUGGGUUGGGUU [G4_r(GGGUU)6]", "TO-N3 (biotin conjugate)", 6.75),
    ("ACUACUGUACUUUACAGCUAGCAGU [hsa-mir-301a]", "TO-N3 (biotin conjugate)", 0.303),
    ("UGCUUCCACAUAGCAGCA [hsa-mir-4752]", "TO-N3 (biotin conjugate)", -0.62),
    ("AGCUGGGGCCGGGU [hsa-mir-4281]", "TO-N3 (biotin conjugate)", 1.63),
    ("GUGCCACUCCAUGGCAC", "TO-N3 (biotin conjugate)", 0.324),
]

Source listed as the supplement of paper PMC11865577.
